Tested on: T-Rex 293 cell line SC3 cells lacking increased expression of androgen receptor protein
Test: Cellular growth inhibition, T-Rex 293 SC3 cells without doxycycline, CellTiter-Glo
Format: cell-based
Conditions: 72 h, T-Rex 293 SC3 cells not exposed to doxycycline, CellTiter-Glo 2.0
Result type: GI50

# example entries with known answers
compound=Cc1sc2c(c1C)C(c1ccc(CC3CC4(C3)CN(c3ncc(C(=O)N[C@H]5C(C)(C)[C@H](Oc6ccc(C#N)c(Cl)c6)C5(C)C)cn3)C4)cc1)=N[C@@H](Cc1ncco1)c1nnc(C)n1-2 experimental_target="T-Rex 293 cell line SC3 cells lacking increased expression of androgen receptor protein" result_type=GI50 experimental_result="< 500 nM"
compound="Cc1sc2c(c1C)C(c1ccc(CN3CCC4(CCCN(c5ncc(C(=O)N[C@H]6C(C)(C)[C@H](Oc7ccc(C#N)c(Cl)c7)C6(C)C)cn5)C4)C3)cc1)=NC(Cc1ncco1)c1nnc(C)n1-2 (some centres unmarked)" experimental_target="T-Rex 293 cell line SC3 cells lacking increased expression of androgen receptor protein" result_type=GI50 experimental_result="500 to 1500 nM"
compound=Cc1sc2c(c1C)C(c1ccc(C(=O)N(C)CCCc3ncc(C(=O)N[C@H]4C(C)(C)[C@H](Oc5ccc(C#N)c(Cl)c5)C4(C)C)cn3)cc1)=N[C@H](Cc1ncco1)c1nnc(C)n1-2 experimental_target="T-Rex 293 cell line SC3 cells lacking increased expression of androgen receptor protein" result_type=GI50 experimental_result="> 3000 nM"
compound=Cc1sc2c(c1C)C(c1ccc(Cl)cc1)=N[C@@H](CC(=O)NCCN(C)c1ncc(C(=O)N[C@H]3C(C)(C)[C@H](Oc4ccc(C#N)c(Cl)c4)C3(C)C)cn1)c1nnc(C)n1-2 experimental_target="T-Rex 293 cell line SC3 cells lacking increased expression of androgen receptor protein" result_type=GI50 experimental_result="1500 to 3000 nM"
compound=Cc1sc2c(c1C)C(c1ccc(C(=O)N3CC[C@]4(CCCN(c5ncc(C(=O)N[C@H]6C(C)(C)[C@H](Oc7ccc(C#N)c(Cl)c7)C6(C)C)cn5)C4)C3)cc1)=N[C@H](Cc1ncco1)c1nnc(C)n1-2 experimental_target="T-Rex 293 cell line SC3 cells lacking increased expression of androgen receptor protein" result_type=GI50 experimental_result="> 3000 nM"

For every listed record, write down its GI50.
1. Cc1sc2c(c1C)C(c1ccc(Cl)cc1)=N[C@@H](CC(=O)NCCOCCOCCOCCOCCN(C)c1ncc(C(=O)N[C@H]3C(C)(C)[C@H](Oc4ccc(C#N)c(Cl)c4)C3(C)C)cn1)c1nnc(C)n1-2
2. Cc1sc2c(c1C)C(c1ccc(CCN3CC[C@]4(C3)CN(c3ncc(C(=O)N[C@H]5C(C)(C)[C@H](Oc6ccc(C#N)c(Cl)c6)C5(C)C)cn3)CC(F)(F)C4)cc1)=N[C@@H](Cc1ncco1)c1nnc(C)n1-2
3. Cc1sc2c(c1C)C(c1ccc(N3CCC[C@H](C(=O)N4CCC[C@@H](c5ncc(C(=O)N[C@H]6C(C)(C)[C@H](Oc7ccc(C#N)c(Cl)c7)C6(C)C)cn5)C4)C3)cc1)=N[C@@H](Cc1ncco1)c1nnc(C)n1-2
4. Cc1sc2c(c1C)C(c1ccc(C#CC3CC4(C3)CN(c3ncc(C(=O)N[C@H]5C(C)(C)[C@H](Oc6ccc(C#N)c(Cl)c6)C5(C)C)cn3)C4)cc1)=NC1(CC1)c1nnc(C)n1-2

1: > 3000 nM; 2: > 3000 nM; 3: 500 to 1500 nM; 4: 500 to 1500 nM

For every listed record, write down its GI50.
1. CCNC(=O)C[C@@H]1N=C(c2ccc(N3CC(N(C(C)C)C4CN(c5ncc(C(=O)N[C@H]6C(C)(C)[C@H](Oc7ccc(C#N)c(Cl)c7)C6(C)C)cn5)C4)C3)cc2)c2c(sc(C)c2C)-n2c(C)nnc21
2. Cc1sc2c(c1C)C(c1ccc(Cl)cc1)=N[C@H](CC(=O)NCCOCCOCCOCCOC1CCN(c3ncc(C(=O)N[C@H]4C(C)(C)[C@H](Oc5ccc(C#N)c(Cl)c5)C4(C)C)cn3)CC1)c1nnc(C)n1-2

1. 500 to 1500 nM
2. > 3000 nM

----------
For each of the compounds below, state its GI50.
Tested on: T-Rex 293 cell line SC cells lacking increased expression of progesterone receptor isoform B protein
Assay: Cellular growth inhibition, T-Rex 293 SC cells without doxycycline, Example 45
Type: cell-based
Conditions: T-Rex 293 SC cells not exposed to doxycycline, 72 hours treatment, CellTiter-Glo 2.0

# example entries with known answers
compound="Cc1sc2c(c1C)C(c1ccc(N3CC(C4CCN(c5ncc(C(=O)N[C@H]6C(C)(C)[C@H](Oc7ccc(C#N)c(Cl)c7)C6(C)C)cn5)CC4)C3)cc1)=N[C@@H](C)c1nnc(C)n1-2 [Compound I-271]" result_type=GI50 experimental_result="0.5 to 1.5 µM"
compound="Cc1sc2c(c1C)C(c1ccc(Cl)cc1)=N[C@H](CC(=O)NCCOCCOCCOCCOCCOCCOCCOC1CCN(c3ncc(C(=O)N[C@H]4C(C)(C)[C@H](Oc5ccc(C#N)c(Cl)c5)C4(C)C)cn3)CC1)c1nnc(C)n1-2 [Compound I-9]" result_type=GI50 experimental_result="1.5 to 3 µM"
compound="COCC[C@@H]1N=C(c2ccc(CCCOC3CCN(c4ncc(C(=O)N[C@H]5C(C)(C)[C@H](Oc6ccc(C#N)c(Cl)c6)C5(C)C)cn4)CC3)cc2)c2c(sc(C)c2C)-n2c(C)nnc21 [Compound I-227]" result_type=GI50 experimental_result="0.5 to 1.5 µM"
compound="CCNC(=O)C[C@@H]1N=C(c2ccc(N(C3CC3)C3CN(CC4CCN(c5ncc(C(=O)N[C@H]6C(C)(C)[C@H](Oc7ccc(C#N)c(Cl)c7)C6(C)C)cn5)CC4)C3)cc2)c2c(sc(C)c2C)-n2c(C)nnc21 [Compound I-129]" result_type=GI50 experimental_result="0.5 to 1.5 µM"

For every listed record, write down its GI50.
1. CCNC(=O)C[C@@H]1N=C(c2ccc(N3CCN(CC4CCN(c5ncc(C(=O)N[C@H]6C(C)(C)[C@H](Oc7ccc(C#N)c(Cl)c7)C6(C)C)cn5)CC4)CC3)cc2)c2c(sc(C)c2C)-n2c(C)nnc21 [Compound I-105]
2. Cc1sc2c(c1C)C(c1ccc(OC3CC4(C3)CC3(CCN(c5ncc(C(=O)N[C@H]6C(C)(C)[C@H](Oc7ccc(C#N)c(Cl)c7)C6(C)C)cn5)CC3)C4)cc1)=N[C@@H](Cc1ncco1)c1nnc(C)n1-2 [Compound I-283]
3. Cc1sc2c(c1C)C(c1ccc(OCCOC3CCN(c4ncc(C(=O)N[C@H]5C(C)(C)[C@H](Oc6ccc(C#N)c(Cl)c6)C5(C)C)cn4)CC3)cc1)=N[C@@H](CC(=O)O)c1nnc(C)n1-2 [Compound I-38]
4. Cc1sc2c(c1C)C(c1ccc(Cl)cc1)=N[C@@H](CC(=O)NCCOCCOCCOCCOCCOC1CCN(c3ncc(C(=O)N[C@H]4C(C)(C)[C@H](Oc5ccc(C#N)c(Cl)c5)C4(C)C)cn3)CC1)c1nnc(C)n1-2 [Compound I-8]

< 0.5 µM
> 3 µM
> 3 µM
0.5 to 1.5 µM

----------
Tested on: T-Rex 293 cell line SC3 cells lacking increased expression of androgen receptor protein
Experiment: Cellular growth inhibition, T-Rex 293 SC3 cells without doxycycline, CellTiter-Glo
Format: cell-based
Settings: 72 h, T-Rex 293 SC3 cells not exposed to doxycycline, CellTiter-Glo 2.0
For each of the compounds below, state its GI50.

# example entries with known answers
compound=Cc1nc(N2CCC3(CC2)CC2(CC(Oc4ccc(C5=N[C@@H](Cc6ncco6)c6nnc(C)n6-c6sc(C)c(C)c65)cc4)C2)C3)ncc1C(=O)N[C@H]1C(C)(C)[C@H](Oc2ccc(C#N)c(Cl)c2)C1(C)C experimental_result="> 3 µM"
compound=Cc1sc2c(c1C)C(c1ccc(OCC[C@@H]3CCCN(c4ncc(C(=O)N[C@H]5C(C)(C)[C@H](Oc6ccc(C#N)c(Cl)c6)C5(C)C)cn4)C3)cc1)=N[C@@H](Cc1ncco1)c1nnc(C)n1-2 experimental_result="0.5 to 1.5 µM"

Now, please, on to the next compound.
The value of GI50 measured for the compound Cc1sc2c(c1C)C(c1ccc(N3CCCC(C(=O)N4CCC[C@H](c5ncc(C(=O)N[C@H]6C(C)(C)[C@H](Oc7ccc(C#N)c(Cl)c7)C6(C)C)cn5)C4)C3)cc1)=N[C@@H](Cc1ncco1)c1nnc(C)n1-2 (stereo partly drawn) turned out to be 0.5 to 1.5 µM

----------
For each of the compounds below, state its GI50.
Test system: T-Rex 293 cell line SC3 cells lacking increased expression of androgen receptor protein
Assay: Cellular growth inhibition, T-Rex 293 SC3 cells without doxycycline, CellTiter-Glo
Format: cell-based
Details: 72 h, T-Rex 293 SC3 cells not exposed to doxycycline, CellTiter-Glo 2.0

For every listed record, write down its GI50.
1. Cc1sc2c(c1C)C(c1ccc(OC3CC4(CCN(c5ncc(C(=O)N[C@H]6C(C)(C)[C@H](Oc7ccc(C#N)c(Cl)c7)C6(C)C)cn5)CC4)C3)cc1)=N[C@@](C)(C(C)c1ncco1)c1nnc(C)n1-2 (stereo partly drawn)
2. COCC[C@@H]1N=C(c2ccc(N3CC(CC4CCN(c5ncc(C(=O)N[C@H]6C(C)(C)[C@H](Oc7ccc(C#N)c(Cl)c7)C6(C)C)cn5)CC4)C3)cc2)c2c(sc(C)c2C)-n2c(C)nnc21
3. Cc1sc2c(c1C)C(c1ccc(Cl)cc1)=N[C@@H](CC(=O)NCCCCCCOC1CCN(c3ncc(C(=O)N[C@H]4C(C)(C)[C@H](Oc5ccc(C#N)c(Cl)c5)C4(C)C)cn3)CC1)c1nnc(C)n1-2
4. Cc1sc2c(c1C)C(c1ccc(Cl)cc1)=N[C@@H](CC(=O)NCCOCCOCCOCCOCCOC1CCN(c3ncc(C(=O)N[C@H]4C(C)(C)[C@H](Oc5ccc(C#N)c(Cl)c5)C4(C)C)cn3)CC1)c1nnc(C)n1-2
5. Cc1sc2c(c1C)C(c1ccc(CCCC3CCN(c4ncc(C(=O)N[C@H]5C(C)(C)[C@H](Oc6ccc(C#N)c(Cl)c6)C5(C)C)cn4)CC3)cc1)=NC(Cc1ncco1)c1nnc(C)n1-2 (stereo partly drawn)
6. Cc1sc2c(c1C)C(c1ccc(C(=O)N3CCC(Cc4ncc(C(=O)N[C@H]5C(C)(C)[C@H](Oc6ccc(C#N)c(Cl)c6)C5(C)C)cn4)CC3)cc1)=N[C@@H](Cc1ncco1)c1nnc(C)n1-2

1: > 3000 nM; 2: > 3000 nM; 3: < 500 nM; 4: 1500 to 3000 nM; 5: 500 to 1500 nM; 6: > 3000 nM
